# ASSAYED TARGET: D(3) dopamine receptor (Homo sapiens, UniProt P35462)
# Sequence (P35462 whole entry): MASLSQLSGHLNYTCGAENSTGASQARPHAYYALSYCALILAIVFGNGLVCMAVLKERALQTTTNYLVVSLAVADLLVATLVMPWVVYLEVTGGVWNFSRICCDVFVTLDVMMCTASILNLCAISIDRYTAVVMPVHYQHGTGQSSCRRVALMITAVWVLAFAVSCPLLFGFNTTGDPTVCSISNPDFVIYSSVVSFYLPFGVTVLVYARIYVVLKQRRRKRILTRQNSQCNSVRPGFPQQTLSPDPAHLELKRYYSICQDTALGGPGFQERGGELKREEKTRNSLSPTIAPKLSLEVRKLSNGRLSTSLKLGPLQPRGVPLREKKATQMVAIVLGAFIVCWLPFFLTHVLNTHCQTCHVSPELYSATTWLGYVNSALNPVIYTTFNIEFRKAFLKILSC
# METHOD DESCRIPTION: Ability to displace [125I]iodosulpiride from human dopamine D3 (hD3) receptor transfected into CHO cells.
# Assay type: cell-based
pKi: −log10 of the molar value.
TEST READOUT: pKi

> print(dat)
                                   compound                            assayed.target  value.measured
1  N#Cc1ccc2c(c1)C1CN(Cc3ccccc3)CC1CC2 (trans isomer)  D(3) dopamine receptor (Homo sapiens, UniProt P35462)            8.20
2  CCCN1CC2COc3ccc(C#N)cc3C2C1 (centres undefined)  D(3) dopamine receptor (Homo sapiens, UniProt P35462)            7.80
3  c1ccc(CN2CC3COc4ccccc4C3C2)cc1 (trans isomer)  D(3) dopamine receptor (Homo sapiens, UniProt P35462)            6.90
4  Brc1ccc2c(c1)C1CN(Cc3ccccc3)CC1CO2 (stereo in doubt; cis)  D(3) dopamine receptor (Homo sapiens, UniProt P35462)            7.00
5  N#Cc1ccc2c(c1)[C@@H]1CN(CCCCNC(=O)c3ccc(-c4ccccc4)cc3)C[C@H]1CO2  D(3) dopamine receptor (Homo sapiens, UniProt P35462)            9.20

(P) CC(=O)Nc1ccc(CN2CC3COc4ccc(C#N)cc4C3C2)cc1 (centres undefined)
(Q) CS(=O)(=O)Nc1ccc(CCN2CC3COc4ccc(C#N)cc4C3C2)cc1 (centres undefined)
Prompt: Could you point out whether the larger pKi belongs to P or to Q ? Reply with the label of the item you choose.
Response: Q
